Data provenance: patent US20240182911A1

tgt: receptor-binding domain (RBD) of the SARS-COV-2 spike (S) protein (SARS-COV-2, UniProt P0DTC2 319-541)
test_protocol: SPR kinetic
Quick reference for koff among some binders

{"binder": "RBD1i13 (VHH) VHH: QVQLQESGGGLVQAGGSLRLSCAASGTISYENFMGWYRQAPGKGRKLVAGINDGTNTYYADSVKGRFTISRDNAKNTVYLQMNSLEPEDTAVYYCAVIGASVLGHAYWGQGTQVTVSS", "koff (s⁻¹)": 0.00216}
{"binder": "RBD1 (VHH) VHH: QVQLQESGGGLVQAGGSLRLSCAASGTISYENFMGWYRQAPGKERELVAGINDGTNTYYADSVKGRFTISRDNAKNTVYLQMNSLKPEDTAVYYCAVIGTSVLGHAYWGQGTQVTVSS", "koff (s⁻¹)": 0.0221}
{"binder": "RBD6 (VHH) VHH: QVQLQESGGGLVQAGGSLRLSCAASGSISTTYLMGWYRQAPGKEREFVATINRGGSTYYADSVKGRFTISRDNAKNTVYLQMNSLKPEDTAVYYCAVGWPDPDYGLAYHRYWGQGTQVTVSS", "koff (s⁻¹)": 0.00892}
{"binder": "RBD1i1 (VHH) VHH: QVQLQESGGGLVQAGGSLRLSCAASGTISYENFMGWYRQAPGKERKLVAGINDGTNTYYADSVKGRFTISRDNAKNTVYLQMNSLKPEDTAVYYCAVIGASVLGHAYWGQGTQVTVSS", "koff (s⁻¹)": 0.0023}
